Reported pIC50 by item:
target: human TRPV1 (Homo sapiens, UniProt Q8NER1); construct: using primers designed surrounding the complete hTRPV1 open reading frame; expressed in transfected cells; host or cells: CHO-K1 cells stably transfected with pcDNA3.1(-)-hVR1 plasmid; assay: Capsaicin-based assay, Protocol 2 (TRPV1/CHO cells, Fluo-4, FLIPR); format: cell-based; conditions: capsaicin 100 nM final, mean ± SEM, number of trials in parentheses, read-out: TRPV1 IC50 Potency, Human Capsaicin CHO (hCAP-CHO)
Sequence (Q8NER1 whole entry): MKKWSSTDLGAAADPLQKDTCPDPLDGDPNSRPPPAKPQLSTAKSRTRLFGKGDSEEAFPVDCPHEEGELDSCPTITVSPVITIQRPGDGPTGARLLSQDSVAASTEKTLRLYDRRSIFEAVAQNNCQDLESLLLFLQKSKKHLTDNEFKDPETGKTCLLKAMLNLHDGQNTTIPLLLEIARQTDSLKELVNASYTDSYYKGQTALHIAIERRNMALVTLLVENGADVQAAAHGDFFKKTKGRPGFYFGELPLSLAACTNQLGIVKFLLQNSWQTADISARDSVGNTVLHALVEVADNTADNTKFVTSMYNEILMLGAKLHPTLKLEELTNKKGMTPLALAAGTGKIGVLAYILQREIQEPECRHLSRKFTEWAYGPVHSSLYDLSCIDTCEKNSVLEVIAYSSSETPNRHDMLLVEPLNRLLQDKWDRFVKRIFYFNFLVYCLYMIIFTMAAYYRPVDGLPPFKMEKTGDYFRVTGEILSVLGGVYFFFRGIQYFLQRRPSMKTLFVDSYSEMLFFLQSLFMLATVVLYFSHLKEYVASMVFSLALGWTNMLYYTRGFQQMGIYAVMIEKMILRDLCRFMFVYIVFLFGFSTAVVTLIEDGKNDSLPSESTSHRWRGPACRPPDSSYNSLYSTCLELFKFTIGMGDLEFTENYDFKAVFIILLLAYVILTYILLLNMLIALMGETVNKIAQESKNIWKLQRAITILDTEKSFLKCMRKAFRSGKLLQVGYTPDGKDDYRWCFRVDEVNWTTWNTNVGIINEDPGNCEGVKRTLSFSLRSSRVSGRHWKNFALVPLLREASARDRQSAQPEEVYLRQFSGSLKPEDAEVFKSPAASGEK
Would you please state pIC50, meaning minus log10 of the concentration in mol/L, as a bare number?

// worked examples, pIC50 included
Cc1ccc(NC(=O)N2CC=C(c3ncc([C@H](O)CO)cc3Cl)CC2)cc1C(F)(F)F
6.15
CC(C)(O)c1cnc(C2=CCN(C(=O)Nc3nc4ccc(Cl)cc4s3)CC2)c(Cl)c1
6.27
O=C(Nc1ccc(C(F)(F)F)c(Cl)c1)N1CCC(F)(c2ncc([C@@H](O)CO)cc2Cl)CC1
7.62
O=C(Nc1ccc(C(F)(F)F)cn1)N1CCC(F)(c2ncc([C@@H](O)CO)cc2Cl)CC1
7.16

Given item O=C(Nc1ccc(Br)c(C(F)(F)F)c1)N1CCC(F)(c2ncc([C@H](O)CO)cc2Cl)CC1 , the value recorded as its pIC50 is 6.97

Record O=C(Nc1ccc(C(F)(F)F)cc1)N1CCC(F)(c2ncc(C(O)CO)cc2Cl)CC1 (stereo not shown) . Reported pIC50: 8.15

Note to self: pIC50 recorded for O=C(Nc1ccc(OC(F)(F)F)cc1)N1CCC(F)(c2ncc([C@H](O)CO)cc2Cl)CC1 was 7.82

The reported value for O=C(Nc1ccc(C(F)(F)F)cc1)N1CC=C(c2ncc(CO)cc2Cl)CC1 in terms of pIC50 is 6.89
